Measured EC50, listed per entry for reference.
# test target: human GPR40 (Homo sapiens)
# Sequence (O14842 whole entry): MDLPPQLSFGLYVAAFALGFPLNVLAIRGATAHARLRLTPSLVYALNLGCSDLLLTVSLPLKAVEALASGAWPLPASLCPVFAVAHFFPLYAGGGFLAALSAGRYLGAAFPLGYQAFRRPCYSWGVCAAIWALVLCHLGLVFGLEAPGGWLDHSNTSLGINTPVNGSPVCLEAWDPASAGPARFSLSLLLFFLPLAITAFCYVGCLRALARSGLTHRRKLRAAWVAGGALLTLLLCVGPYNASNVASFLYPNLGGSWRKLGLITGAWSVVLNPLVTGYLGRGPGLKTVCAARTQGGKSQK
# run description: Determination of EC50 for human GPR40: intracellular calcium change by FLIPR in CHO cells stably expressing human GPR40
# conditions used: CHO cell line stably expressing human GPR40, changes in intracellular calcium concentration, Fluo3-AM, read-out: EC50 (Receptor Function Modulating Action On GPR40)
Counter-ions that a name gives are not always drawn.

Field: example entries. Status: answers known.
[[record]]
compound = "Cc1ccc2ccccc2c1-c1cccc(CNc2ccc(CCC(=O)O)cc2)c1 [Example 26, hydrochloride]"
quantity = "EC50"
data_value = "< 100 nM"

[[record]]
compound = "Cc1cccc(C)c1-c1cc(CNc2ccc(CCC(=O)O)c(F)c2)cc(OCc2ccccc2)c1 [Example 105, methanesulfonate]"
quantity = "EC50"
data_value = "< 100 nM"

[[record]]
compound = "Cc1cc(OCc2ccccc2)cc(C)c1-c1cccc(CNc2ccc(CCC(=O)O)cc2)c1 [Example 30, hydrochloride]"
quantity = "EC50"
data_value = "< 100 nM"

[[record]]
compound = "CC(C)(C)c1cc(-c2ccccc2)n(Cc2ccc(CNc3ccc(CCC(=O)O)c(F)c3)cc2)n1"
quantity = "EC50"
data_value = "< 100 nM"

[[record]]
compound = "CC(C)(C)c1cc(COc2ccccc2)n(Cc2ccc(CNc3ccc(CCC(=O)O)c(F)c3)cc2)n1 [Example 169, dimethanesulfonate]"
quantity = "EC50"
data_value = "< 100 nM"


q: Requested read-out: EC50. Entry: CC(C)(C)c1cc(OCc2ccccc2)n(Cc2ccc(CNc3ccc(CCC(=O)O)c(F)c3)cc2)n1 [Example 171, dimethanesulfonate]
a: < 100 nM

q: Which EC50 value belongs to O=C(O)CCc1ccc(NC2CCc3cc(OCc4ccccc4)ccc32)cc1 (stereo not shown) ?
a: < 100 nM

q: Returns the measured EC50 for the input compound. Input: Cc1cc(OCC(=O)O)cc(C)c1-c1cccc(CNc2ccc(CCC(=O)O)c(F)c2)c1
a: < 1000 nM

q: Can you share its EC50? I mean this compound: CCCN(Cc1ccc(CNc2ccc(CCC(=O)O)cc2)cc1)c1nc(-c2ccccc2)cs1
a: < 100 nM

q: Find the recorded EC50 belonging to CCOCCOc1cc(C)c(-c2cccc(CNc3ccc(CCC(=O)O)cc3)c2)c(C)c1 [Example 37, hydrochloride] and report it.
a: < 100 nM
